System: HL60 cells
Assay: AsedaSciences SYSTEMETRIC Cell Health Screen (flow cytometry toxicity profiling)
Conditions: HL60, 4 h, 5 nM–100 µM, probability 0–1, n = 2
Here, each record is paired with measured NMI2: Nuclear membrane integrity 2 score data.
endpoint-label: NMI2: Nuclear membrane integrity 2 score

compound="CC(c1cc2ccccc2s1)N(O)C(N)=O (stereo not drawn) [Zileuton, reference compound]" recorded_value=0.080
compound="O=C(O)CCc1nc(-c2ccccc2)c(-c2ccccc2)o1 [Oxaprozin, reference compound]" recorded_value=0.12
compound=C#Cc1cccc(Nc2ncnc3cc(F)ccc23)c1 recorded_value=0.19
compound=C#Cc1cccc(Nc2c(C#N)cnc3cc(I)ccc23)c1 recorded_value=0.94
compound=C#Cc1cccc(Nc2ccnc3cc(I)ccc23)c1F recorded_value=0.75
compound=C#Cc1cccc(Nc2ncnc3ccc(Br)cc23)c1 recorded_value=0.020
compound="COc1ccc(/C=C/C(=O)Nc2ccccc2C(=O)O)cc1OC [Tranilast, reference compound]" recorded_value=0.30
compound="Cc1ccc(N(CC2=NCCN2)c2cccc(O)c2)cc1 [Phentolamine, reference compound]" recorded_value=0.79
compound=C#Cc1cccc(Nc2ncnc3ccc(Cl)cc23)c1 recorded_value=0.053
compound=C#Cc1cccc(Nc2ncnc3ccc(S(C)(=O)=O)cc23)c1 recorded_value=0.089
compound=C#Cc1ccc(F)c(Nc2ncnc3cc(OC)c(OC)cc23)c1 recorded_value=0.85
compound="CC1(C)NC(=O)N(c2ccc([N+](=O)[O-])c(C(F)(F)F)c2)C1=O [Nilutamide, reference compound]" recorded_value=0.52
compound=C#Cc1cccc(Nc2ncnc3ccc(C(F)(F)F)cc23)c1 recorded_value=0.19
compound="COc1cc2c(Nc3ccc(Cl)c(Cl)c3F)ncnc2cc1OC[C@@H]1C[C@@H]2CN(C)C[C@@H]2C1 [Tesevatinib, reference compound]" recorded_value=0.99
compound="CS(=O)(=O)CCNCc1ccc(-c2ccc3ncnc(Nc4ccc(OCc5cccc(F)c5)c(Cl)c4)c3c2)o1 [Lapatinib, reference compound]" recorded_value=0.92
compound=C#Cc1cccc(Nc2ncnc3cc(OC)ccc23)c1 recorded_value=0.15
compound=C#Cc1cccc(Nc2ncnc3cc(Br)ccc23)c1 recorded_value=0.3
compound="Cc1ccc(-c2cc(C(F)(F)F)nn2-c2ccc(S(N)(=O)=O)cc2)cc1 [Celecoxib, reference compound]" recorded_value=0.51
compound="C=C(C)[C@H]1Cc2c(ccc3c2O[C@@H]2COc4cc(OC)c(OC)cc4[C@@H]2C3=O)O1 [Rotenone, reference compound]" recorded_value=0.76
compound=C#Cc1cccc(Nc2ncnc3ccccc23)c1 recorded_value=0.76
compound="CC(C)NCC(O)COc1cccc2ccccc12 (stereo not drawn) [Propranolol, reference compound]" recorded_value=0.23
compound=C#Cc1cccc(Nc2ncnc3cc(OC)c(OC)cc23)c1 recorded_value=0.41
compound=C#Cc1cc(Nc2ncnc3cc(OC)c(OC)cc23)ccc1Cl recorded_value=0.40
compound=C#Cc1ccc(F)c(Nc2ncnc3ccc(I)cc23)c1 recorded_value=0.078
compound=C#Cc1cc(Nc2ncnc3ccc(I)cc23)ccc1F recorded_value=0.048
compound=C#Cc1cccc(Nc2ncnc3cc(C#N)ccc23)c1 recorded_value=0.10
compound="Clc1cccc(Cl)c1N=C1NCCN1 [Clonidine, reference compound]" recorded_value=0.040
compound="CN(C)C/C=C/C(=O)Nc1cc2c(Nc3ccc(F)c(Cl)c3)ncnc2cc1O[C@H]1CCOC1 [Afatinib, reference compound]" recorded_value=0.99
compound="CC(CN1c2ccccc2Sc2ccccc21)N(C)C (stereo not drawn) [Promethazine, reference compound]" recorded_value=0.94
compound=C#Cc1cccc(Nc2ncnc3cc4c(cc23)OCCO4)c1 recorded_value=0.83
compound=C#Cc1cccc(Nc2ncnc3ccc(F)cc23)c1 recorded_value=0.11
compound=C#Cc1cc(Nc2ncnc3cc(I)ccc23)ccc1F recorded_value=0.33
compound="NC(=O)c1ncn([C@@H]2O[C@H](CO)[C@@H](O)[C@H]2O)n1 [Ribavirin, reference compound]" recorded_value=0.030
